Below, each entry is listed with its recorded [θ]222 mean residue molar ellipticity, PBS.
Assay: CD spectroscopy, helicity
Type: physicochemical
Details: CD at 222 nm, 25 °C, phosphate buffer saline pH 7.0
Where no end group is shown, it is not given here.

substance="KWLKKWLKWWKK-NH2 [8b]" reading="-6387 mdeg cm2/(dmol × res)"
substance="Ac-RWIRRWIRWWRR-NH2 [7c]" reading="-3192 mdeg cm2/(dmol × res)"
substance="KWAKKWAKWWKK-NH2 [6b]" reading="-7476 mdeg cm2/(dmol × res)"
substance="RAWRAWWRRA-NH2 [4f]" reading="-3665 mdeg cm2/(dmol × res)"

Continue with the substance presented below.
Q. Entry RWWRRWAR-NH2 [2a] has what [θ]222 mean residue molar ellipticity, PBS?
A. -4051 mdeg cm2/(dmol × res)

----------
# maps each entry to its MIC, E. coli (ATCC BAA-2452)
Tested on: E. coli (ATCC BAA-2452)
Conditions: Gram-negative, NDM-1; CLSI microdilution, CAMHB, 37 °C, 24 h; highest MIC of three independent experiments in triplicate
Where no end group is shown, it is not given here.
Please give a number only; it is taken to be in µg/mL.

Before answering, review these 3 worked examples.
substance="RWLRRWLRWWRR-NH2 [8a]" study_target="E. coli (ATCC BAA-2452)" property_measured="MIC, E. coli (ATCC BAA-2452)" reading=12.5
substance="KWIKKWIKWWKK-NH2 [7b]" study_target="E. coli (ATCC BAA-2452)" property_measured="MIC, E. coli (ATCC BAA-2452)" reading=6.2
substance="RWIRRWIRWWRR-NH2 [7a]" study_target="E. coli (ATCC BAA-2452)" property_measured="MIC, E. coli (ATCC BAA-2452)" reading=12.5

Q. Look up MIC, E. coli (ATCC BAA-2452): KWLKKWLKWWKK-NH2 [8b]
A. 6.2

----------
Test system: human red blood cells (hRBCs)
Assay: Hemolytic assay
Type: cell-based
Details: value in parentheses (μM); hRBC 4% in PBS, 2 h, 37 °C, 567 nm
Where no end group is shown, it is not given here.
property-measured: HC50 (concentration at which 50% hemolysis was observed)

substance="KWLKKWLKWWKK-NH2 [8b]" reading="159.34 µM"
substance="Ac-KWIKKWIKWWKK-NH2 [7d]" reading="88.92 µM"
substance="RWWRRAWRAA-NH2 [4c]" reading="> 353.69 µM"

Q. Give the measured HC50 (concentration at which 50% hemolysis was observed) of AWWRRAWRR-NH2 [3f] .
A. > 372.42 µM

Q. Same lookup for RWWRRWAR-NH2 [2a] , please.
A. > 393.23 µM

Q. Would you mind doing RWARRAWRAW-NH2 [4e] as well?
A. > 353.69 µM

Q. One more substance: H-RAWRRWARAW-NH2 [4d]
A. > 353.69 µM

Q. Also check RAWRRWWRA-NH2 [3b]
A. > 372.42 µM

Q. Cool, now WRRWWRR-NH2 [1c]
A. > 416.52 µM

Q. // same read-out, input: ARRWWRRW-NH2 [2e]
A. > 393.23 µM

Q. Then RRWRRWW-NH2 [1d] ?
A. > 416.52 µM

Q. Try RAARRWARWWR-NH2 [5a] next.
A. > 318.50 µM

Q. Please do the same for Ac-KWLKKWLKWWKK-NH2 [8d] as well.
A. 80.59 µM

Q. Try this substance next: RWWRRAWR-NH2 [2b]
A. > 393.23 µM

Q. What do you have for RWARRWARWWR-NH2 [5b] ?
A. > 296.74 µM

Q. How about this substance: KWAKKWAKWWKK-NH2 [6b]
A. > 298.85 µM

----------
Assay: CD spectroscopy, helicity;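 for % of helicity induced by TFE: share of the total helicity in TFE gained over the same peptide in PBS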
Format: physicochemical
Settings: increase in molar ellipticity at 222 nm in the presence of 50% TFE
Where no end group is shown, it is not given here.
Note that class boundaries on % of helicity induced by TFE are bucket 1: < 40%; bucket 2: ≥ 40% and < 60%; bucket 3: ≥ 60%

Known results for substances:
substance="KWLKKWWKWWKK-NH2 [8e]" discrete_label="bucket 2"
substance="RWWRRWAR-NH2 [2a]" discrete_label="bucket 1"
substance="Ac-KWAKKWAKWWKK-NH2 [6d]" discrete_label="bucket 1"
substance="Ac-KWIKKWIKWWKK-NH2 [7d]" discrete_label="bucket 3"
substance="KWAKKWAKWWKK-NH2 [6b]" discrete_label="bucket 2"

Q. Looking at Ac-RWIRRWIRWWRR-NH2 [7c] , which class would you pick?
A. bucket 3

Q. Also need RWIRRWIRWWRR-NH2 [7a] , thanks.
A. bucket 3

Q. Follow-up entry: RAWRAWWRRA-NH2 [4f]
A. bucket 2

Q. Then RWARRWARWWRR-NH2 [6a] ?
A. bucket 2

Q. Try the substance WRRWWRR-NH2 [1c]
A. bucket 2

Q. // next record KWIKKWIKWWKK-NH2 [7b]
A. bucket 3

----------
System: S. aureus (ATCC 29213)
Test: MIC, standard microtiter dilution (CLSI)
Type: cell-based
Conditions: broth microdilution (CLSI), CAMHB, 10^6 CFU/mL, 37 °C, 24 h; highest MIC of three independent experiments in triplicate
Where no end group is shown, it is not given here.
Documented MIC, S. aureus (ATCC 29213) across a set of substances
# value in µg/mL; strip the unit string

substance="Ac-RWIRRWIRWWRR-NH2 [7c]" reading=6.2

Q. Need MIC, S. aureus (ATCC 29213), item RWRRWWR-NH2 [1a]
A. 100

Q. Do the same for Ac-RWLRRWLRWWR-NH2 [5f] please
A. 12.5

Q. Same question for RAARRWARWWR-NH2 [5a] please.
A. 100

Q. Next substance: Ac-RWIRRWIRWWR-NH2 [5e]
A. 50

Q. Field entry: H-RWWRRWR-NH2 [1e]
A. 100

----------
% of helicity induced by Liposomes overview
Test: CD spectroscopy, helicity;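 for % of helicity induced by Liposomes: share of the total helicity with liposomes gained over the same peptide in PBS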
Type: physicochemical
Settings: increase in molar ellipticity at 222 nm in the presence of liposomes
Where no end group is shown, it is not given here.

substance="KWIKKWIKWWKK-NH2 [7b]" reading=75.56%

Q. What does the record list as % of helicity induced by Liposomes for Ac-RWLRRWLRWWRR-NH2 [8c] ?
A. 58.99%

Q. Then what about the substance RAWRAWWRRA-NH2 [4f] ?
A. 18.01%

Q. Also Ac-RWIRRWIRWWRR-NH2 [7c] ?
A. 83.45%

Q. What about this substance? KWLKKWLKWWKK-NH2 [8b]
A. 66.92%

Q. What about KWLKKWWKWWKK-NH2 [8e] ?
A. 64.02%

Q. Entry to check: RWWRRWAR-NH2 [2a]
A. 11.08%

----------
Entries and their HC50 (concentration at which 50% hemolysis was observed)
Tested on: human red blood cells (hRBCs)
Assay: Hemolytic assay
Format: cell-based
Conditions: value in parentheses (μM); hRBC 4% in PBS, 2 h, 37 °C, 567 nm
Where no end group is shown, it is not given here.
Output spec: scalar in µM, unitless text.

As a guide, the following entries are already answered.
substance="Ac-RWARRWARWWRR-NH2 [6c]" reading=58.41
substance="Ac-RWLRRWLRWWR-NH2 [5f]" reading=35.89
substance="Ac-KWAKKWAKWWKK-NH2 [6d]" reading=201.15
substance="Ac-RWLRRWLRWWRR-NH2 [8c]" reading=15.25
substance="RWARRWARWWRR-NH2 [6a]" reading=124.92

Q. Entry KWLKKWWKWWKK-NH2 [8e] has what HC50 (concentration at which 50% hemolysis was observed)?
A. 131.13

Q. Cool, now KWIKKWIKWWKK-NH2 [7b]
A. 261.77

----------
Tested on: K. pneumoniae (ATCCBAA-1705)
Experiment: MIC, standard microtiter dilution (CLSI)
Format: cell-based, Klebsiella pneumoniae
Settings: value in parentheses (μM); broth microdilution (CLSI), CAMHB, 37 °C, 24 h
Where no end group is shown, it is not given here.
property-measured: MIC, K. pneumoniae (ATCCBAA-1705)

Would you please look over these solved cases?
substance="H-RAWRRAWRAW-NH2 [4a]" property_measured="MIC, K. pneumoniae (ATCCBAA-1705)" reading="> 70.74 µM"
substance="Ac-RWIRRWIRWWR-NH2 [5e]" property_measured="MIC, K. pneumoniae (ATCCBAA-1705)" reading="55.21 µM"
substance="RWLRRWLRWWRR-NH2 [8a]" property_measured="MIC, K. pneumoniae (ATCCBAA-1705)" reading="6.49 µM"
substance="RWWRRAWAR-NH2 [3e]" property_measured="MIC, K. pneumoniae (ATCCBAA-1705)" reading="> 74.48 µM"
substance="RAWRRWWRA-NH2 [3b]" property_measured="MIC, K. pneumoniae (ATCCBAA-1705)" reading="> 74.48 µM"

Q. GET /values?readout=MIC, K. pneumoniae (ATCCBAA-1705)&item= RWWRRAWR-NH2 [2b]
A. > 78.65 µM

Q. Request: RWLRRWLRWWR-NH2 [5d]
A. 28.26 µM

Q. Try the substance KWAKKWAKWWKK-NH2 [6b]
A. > 59.77 µM
